Test system: HCT-15 colon
Assay: NCI-60 one-dose screen, 48 h (100 = growth as untreated, 0 = no growth, -100 = all killed)
Details: 10 µM
The panel holds about 83,000 compounds, 20% with a hit somewhere; the sample as a whole holds those more often.
Binarize growth at 90%; below is TRUE, at or above is FALSE.

Examples from the recorded data:
Oc1[nH]c2cc(Cl)ccc2c1/C=c1/ccc2c(c1)N=C(c1cc(F)cc(F)c1)N=2    TRUE
COc1cc(Nc2ccnc(NCCCNc3ccnc4cc(Cl)ccc34)n2)cc(OC)c1    TRUE
O=C(Nc1cccc(-n2cc(-c3ccncc3)c(-c3ccc(O)c(Cl)c3)n2)c1)c1cccc(C(F)(F)F)c1    TRUE
CC(=O)c1cc(Cl)ccc1O    FALSE
O=C(N/N=C\c1cc(Cl)ccc1[N+](=O)[O-])c1ccco1    FALSE

Problem: Is the reported growth for O=C(CSSCC(=O)c1ccc(Cl)cc1)c1ccc(Cl)cc1 strictly below 90%?
Result: TRUE

Problem: Would you kindly verify if growth of O=C(CC(NC(=O)OCc1ccccc1)C(=O)OCc1ccccc1)OCc1ccccc1 (stereo unspecified) is strictly less than 90%?
Result: FALSE

----------
System: HS 578T breast
Test: NCI-60 one-dose screen, 48 h
Settings: 10 µM
The panel holds about 83,000 compounds, 20% with a hit somewhere; the sample as a whole holds those more often. Calls of active or inactive are those of the source. Rule for the calls: active = growth percent below 10; inactive = the rest.
Hi there, use one of these labels in your reply, thanks! true for active, false for inactive

Reference set, count: 5
ClCC#CCSc1ncnc2c1ncn2CC#CCCl    false
Nc1ncnc2[nH]c(=O)[nH]c12    false
C[C@@H]1C=C2C(=O)O[C@@H]3CC[C@H](C1)[C@]23O    false
O=[N+]([O-])c1ccc(Oc2cc(Cl)c(Cl)cc2Cl)c(C(F)(F)F)c1    false
Oc1[nH]c2cc(Cl)ccc2c1/C=c1/ccc2c(c1)N=C(c1cc(F)cc(F)c1)N=2    false

Problem: Call for entry CC(=O)OCc1cc(-c2nc3ccccc3[nH]c2=O)nn1-c1ccc(Cl)cc1 :
Result: false

Problem: For COc1ccc2c(c1)C(=O)c1c-2c(=O)n(CCCN(C)C)c2cc(OC)c(OC)cc12 , which call appears in the assay record?
Result: false

Problem: Any idea what this test logged for O=C1NC(=O)N(Cc2ccccc2)CC1Br (stereo not drawn) ?
Result: false

Problem: Check the results log: what was the call for O=C(Nc1ccc(Cl)c(Cl)c1)Nc1c(Oc2ccc(Cl)c(Cl)c2)ccc(Cl)c1S(=O)(=O)O ?
Result: true

Problem: Just curious, what result did COc1cc(NC(=O)CCSc2nc3ccc(C)cc3c(=O)n2Cc2ccccc2)cc(OC)c1OC get here?
Result: true

Problem: Field: outcome | Entry: C(CCCC1=NCCO1)CCCC1=NCCO1
Result: false

Problem: Identify the outcome logged in this assay for the compound shown: COc1ccc2c(c1)-c1c(c3cc(OC)ccc3n(CCN(C)C)c1=O)C2=O
Result: false

----------
System: BT-549 breast
Assay: NCI-60 one-dose screen, 48 h (100 = growth as untreated, 0 = no growth, -100 = all killed)
Settings: 10 µM
Compounds without any hit were thinned out: in the full panel of roughly 83,000, 20% have a hit.
Binning of growth into classes: low bin = under 40%, mid bin = from 40% up to 90%, high bin = 90% and over

COc1ccc2c(c1OC)O/C(=C\c1ncc([N+](=O)[O-])n1C)C2=O    low bin
COc1cc2nc(Nc3cccc(NC(C)=O)c3)nc(N)c2cc1OC    high bin
O=C1/C(=C\c2ccc(F)cc2)CN(C(=O)c2ccccc2)C/C1=C\c1ccc(F)cc1    low bin
CSCCCNC(=O)c1ccc2c(c1)/C(=C/c1[nH]c(C)cc1C)C(=O)N2    low bin
CC(=O)O[C@]1(C)CC[C@H]2[C@H](CNCCc3ccc(Cl)cc3)C(=O)O[C@@H]2C2=C(C)C(=O)C[C@H]21    high bin
N=C(N)c1ccc(-c2ccc(-c3ccco3)o2)cc1    mid bin
N#Cc1c(C#N)c(SSc2c(C#N)c(C#N)c(N)n2-c2ccccc2)n(-c2ccccc2)c1N    high bin
O=C1/C(=C/c2ccc([N+](=O)[O-])s2)Oc2ccccc21    low bin

Problem: Class (by measured growth) for O=C(O)c1ccc(Cl)cc1Nc1ccc(F)cc1
Result: low bin

Problem: Record O=C(Nc1ccc(Cl)cc1)N1NC(c2ccc(Cl)cc2)C=C1c1ccccc1 (stereo not drawn) — which class?
Result: high bin

Problem: Bin this entry: CN1CCCNc2c(c(=O)c2=O)NCCCN(C)CCCNc2c(c(=O)c2=O)NCCCN(C)CCCNc2c(c(=O)c2=O)NCCCN(C)CCCNc2c(c(=O)c2=O)NCCCN(C)CCCNc2c(c(=O)c2=O)NCCCN(C)CCCNc2c(c(=O)c2=O)NCCCN(C)CCCNc2c(c(=O)c2=O)NCCC1
Result: mid bin

Problem: Hi there! Could you help me figure out the category for NC(=O)c1ccc(-c2cccc3c(=O)nc(N4CCOCC4)oc23)cc1 please?
Result: high bin

Problem: Lab log: O=C(N/N=C/c1cc2ccccc2c2ccccc12)c1cc(O)c(O)c(O)c1 — assign growth category
Result: mid bin

----------
Quick reference: growth of the listed items.
System: SNB-19 CNS
Assay: NCI-60 one-dose screen, 48 h (100 = growth as untreated, 0 = no growth, -100 = all killed)
Settings: 10 µM
The panel holds about 83,000 compounds, 20% with a hit somewhere; the sample as a whole holds those more often. Activity calls are given as the source filed them. How the source made its calls: active means growth percent below 10; inactive means the rest.

Cc1cccc2c1O/C(=C\c1ccc([N+](=O)[O-])o1)C2=O    44.2% (inactive)
c1ccc2c(c1)oc1c3cccnc3ccc21    95.3% (inactive)
O=S(=O)(NCCNc1nccc(-c2c(-c3ccc(F)cc3)nc3sccn23)n1)c1ccc2ccccc2c1    105% (inactive)
COc1cc(-c2cc(C(=O)N3CCN(C(=O)c4ccccc4NCc4cccs4)CC3)nc3cc(-c4ccccc4)nn23)cc(OC)c1OC    85.1% (inactive)
Nc1ccc2cc(S(=O)(=O)O)cc(O)c2c1N=Nc1ccc(F)cc1    104% (inactive)
COc1ccc(-c2nc(-c3nc4cc(Cl)c(F)cc4[nH]3)c3ccccn23)cc1    55.5% (inactive)

Now let's try a different one.
Problem: For the compound shown here, O=C1/C(=C\c2ccccc2)CN(C(=O)c2ccccc2)C/C1=C\c1ccccc1 , give the reported growth.
Result: 55.2% (inactive)

----------
Tested on: HS 578T breast
Experiment: NCI-60 one-dose screen, 48 h (100 = growth as untreated, 0 = no growth, -100 = all killed)
Settings: 10 µM
The panel holds about 83,000 compounds, 20% with a hit somewhere; the sample as a whole holds those more often.
Decision: growth >= 90% yields Y, all other cases yield N.

# count of solved cases: 4
C=C(C(=O)c1ccccc1)C(NC(C)(C)C)c1ccccc1 (configuration not stated)    N
Nc1cc2c(cc1Cl)-c1ccc([N+](=O)[O-])cc1/C2=N\O    Y
CCCCCCCCCCCC[n+]1ccc(C(N)=O)cc1    N
O=C(Nc1ccncc1)C(=O)c1cn(S(=O)(=O)c2cccc(Cl)c2)c2ccccc12    N

Problem: Check the entry CCN(CC)CCNC(=O)c1ccc(NC(C)=O)cc1 : does growth equal or exceed 90%?
Result: Y

Problem: Is growth at least 90%? Consider COc1ccc(-c2cc(/C=C/C(=O)c3cc(OC)c(OC)c(OC)c3)[nH]n2)cc1OC
Result: N

Problem: Hi, just wondering whether COc1cc(-c2nc(Nc3nc4ccccc4s3)[nH]c(=O)c2C#N)cc(OC)c1O shows growth of 90% or higher.
Result: Y

Problem: Say whether NC1=NC(=O)C(c2ccccc2)(c2ccccc2)S1 shows growth of 90% or more.
Result: Y

Problem: Has O=c1[nH]c(-c2ccc(Cl)cc2)nc2sc3c(c12)CCCC3 a recorded growth greater than or equal to 90%?
Result: Y

Problem: Check if growth >= 90% (inclusive). Item: CN1CCC(CNc2cc(C3(C(=O)Nc4cc(C(=O)Nc5ccc(Cl)c(C(F)(F)F)c5)ccc4F)CC3)ncn2)CC1
Result: N

----------
Tested on: SK-MEL-28 melanoma
Experiment: NCI-60 one-dose screen, 48 h
Details: 10 µM
About 83,000 compounds went through this panel and 20% of them were active in at least one assay; those are over-represented in the sample as a whole. Activity calls are given as the source filed them. Rule for the calls: active = growth percent below 10; inactive = the rest.
Form entry, call: pick from active, inactive

Look over these answered cases.
CC1(O)CCC2CC3OC3(C)CCC3OC3(C)CCC1C2(C)C (configuration not stated)    inactive
FC(F)(F)c1ccc(-c2cnc(-n3cc(COCCN4CCCCC4)nn3)nc2NC2CCCCCC2)cc1    active
COc1cc(-c2cc(/C=C3\C(=O)Nc4cc(Cl)ccc43)[nH]n2)cc(OC)c1OC    inactive
ClCC#CCSc1ncnc2c1ncn2CC#CCCl    inactive
O=C1NC(=O)N(Cc2ccccc2)CC1Br (configuration not stated)    inactive
Cc1nc2ccccc2c(N)c1-c1cc(C)c2c(C)nc3ccccc3c2n1    active
COc1cc(Nc2ncnc(Nc3ccc4c(n3)NC(=O)C(C)(C)O4)n2)cc(OC)c1OC    inactive
C[C@@H]1C=C2C(=O)O[C@@H]3CC[C@H](C1)[C@]23O    inactive

Problem: Please share the test call associated with CC/C(=N\N=C(/CC)c1ccc(Br)cc1)c1ccc(Br)cc1 .
Result: inactive

Problem: Tell me the assay call for CCOC(=O)CNC(=O)CCCCSc1ncnc2nc[nH]c12 please.
Result: inactive

Problem: # lookup: test call for COc1ccc2c(c1)C(=O)c1c-2c(=O)n(CCCN(C)C)c2cc(OC)c(OC)cc12
Result: inactive

Problem: Outcome? O=C(c1ccc(Cl)cc1Cl)N1CCOCC1
Result: inactive

Problem: Hi, sorry to bother you, what did the test record for O=C(Nc1ccncc1)C(=O)c1cn(S(=O)(=O)c2cccc(Cl)c2)c2ccccc12 ?
Result: inactive

Problem: What did this assay record as the result for CC(=O)c1cc(Br)ccc1O ?
Result: inactive

Problem: Look up the recorded call for Nc1nc(N)c(NC(=O)CNc2ccc(C(=O)O)cc2)c(N)n1 in this test.
Result: inactive

Problem: Assay outcome for COc1ccc(-c2ccc(-c3ccc(C(=N)N)cn3)o2)cc1 : what was it?
Result: inactive

Problem: Test call for this compound, please: O=C(CSSCC(=O)c1ccc(Cl)cc1)c1ccc(Cl)cc1
Result: inactive

Problem: Recorded call for CCN(CC)CCOc1nc2cc(OC)c(OC)cc2c2c1-c1ccc(OC)cc1C2=O ?
Result: inactive
